# protocol: Neurotoxicity in po dosed Sprague-Dawley rat after 0.25 hrs by rotarod test
# Format: toxicity, organism-based
# conditions: in vivo
measured_metric: TD50 at 0.25 h

Recorded TD50 at 0.25 h for "c1ccc2c(OCCCCCN3CCCCC3)cccc2c1" , please?
> 500 mg/kg

---

# protocol: Therapeutic index, ratio of ip dosed albino CF-1 mouse TD50 to ip dosed albino CF-1 mouse ED50 for 44 mA current-induced 6 Hz psychomotor test
# Format: toxicity, organism-based
# conditions: in vivo, read-out: TI
measured_metric: selectivity ratio
Respond with the number and no other words.

Give its selectivity ratio value. Item: "c1ccc2c(OCCCCCN3CCCCC3)cccc2c1"
1.6

---

# protocol: Neurotoxicity in ip dosed Sprague-Dawley rat after 0.25 hrs by rotarod test
# Assay type: toxicity, organism-based
# conditions: in vivo
measured_metric: TD50 at 0.25 h (mg/kg)
Give just the numeric value; mg/kg need not be written.

// returns reported TD50 at 0.25 h for input "c1ccc2c(OCCCCCN3CCCCC3)cccc2c1"
60.6

---

# protocol: Neurotoxicity in ip dosed albino CF-1 mouse after 0.25 hrs by rotarod test
# Type: toxicity, organism-based
# conditions: in vivo
Exercise: state measured TD50 at 0.25 h for each of the compounds provided.
Express your answer in mg/kg, writing the number without its unit.

Name the reported TD50 at 0.25 h value associated with the compound "c1ccc2c(OCCCCCN3CCCCC3)cccc2c1"
94.8

"Nc1nnc(-c2cccc(Cl)c2Cl)c(N)n1" ?
30

---

Exercise: state measured pIC50 for each of the molecules provided.
# system_tested: Histamine H3 receptor (Homo sapiens)
# Sequence (Q9Y5N1 whole entry): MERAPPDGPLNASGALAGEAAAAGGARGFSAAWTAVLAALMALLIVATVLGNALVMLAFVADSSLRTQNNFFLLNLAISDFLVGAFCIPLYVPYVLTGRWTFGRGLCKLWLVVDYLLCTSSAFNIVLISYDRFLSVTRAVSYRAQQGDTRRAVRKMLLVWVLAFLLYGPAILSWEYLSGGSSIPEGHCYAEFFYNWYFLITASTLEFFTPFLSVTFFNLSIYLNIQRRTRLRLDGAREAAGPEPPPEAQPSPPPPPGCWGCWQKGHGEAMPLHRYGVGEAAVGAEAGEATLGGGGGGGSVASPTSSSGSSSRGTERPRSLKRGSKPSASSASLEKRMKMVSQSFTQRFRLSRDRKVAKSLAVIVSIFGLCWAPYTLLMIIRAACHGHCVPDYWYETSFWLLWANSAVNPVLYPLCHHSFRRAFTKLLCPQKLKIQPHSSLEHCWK
# protocol: Antagonist activity at human H3 receptor expressed in HEK293 cells assessed as inhibition of RAMH-induced reduction of forskolin-stimulated cAMP accumulation after 30 mins by Ulight-based TR-FRET assay
Just the number, please; pIC50 means minus log10 of the concentration in mol/L.

Entry "c1ccc2c(OCCCCCN3CCCCCC3)cccc2c1" has what pIC50?
6.51

Try "c1ccc2c(OCCCCCN3CCCCC3)cccc2c1" next.
6.78

---

# system_tested: Histamine H3 receptor (Rattus norvegicus)
# Sequence (Q9QYN8 whole entry): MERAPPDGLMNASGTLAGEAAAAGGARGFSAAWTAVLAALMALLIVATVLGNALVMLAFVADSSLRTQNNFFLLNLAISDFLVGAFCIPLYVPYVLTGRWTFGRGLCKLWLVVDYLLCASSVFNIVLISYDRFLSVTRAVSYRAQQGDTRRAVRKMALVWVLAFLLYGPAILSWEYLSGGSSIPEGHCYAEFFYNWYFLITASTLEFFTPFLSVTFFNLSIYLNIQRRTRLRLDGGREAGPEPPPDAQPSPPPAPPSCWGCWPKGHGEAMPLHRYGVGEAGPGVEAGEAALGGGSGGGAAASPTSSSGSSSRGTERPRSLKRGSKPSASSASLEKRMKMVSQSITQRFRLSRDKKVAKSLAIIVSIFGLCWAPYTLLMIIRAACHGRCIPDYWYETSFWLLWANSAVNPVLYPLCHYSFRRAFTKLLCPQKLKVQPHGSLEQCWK
measured_metric: Ki
Answer as a quantity: numeral, then unit.

Quick one: Ki of S=C(NC1CCCCC1)N1CCC(c2cnc[nH]2)CC1 [THIOPERAMIDE] ?
2.1 nM

Numbers sourced from ChEMBL document CHEMBL4118139.
